Tested on: Solenopsis invicta
Assay: whole plant or invertebrate
Type: in vivo
Details: Solenopsis invicta, 24 h, read-out: Solenopsis invicta Mortality (%) 100 ppm 24 h, 100 ppm; 24 h; water test tube poison-feeding
// boundary case: mortality at 100 ppm equal to 20% maps to criterion not met; strictly smaller maps to criterion met

> print(dat)
                                    compound        label.class
 1  N#CCC1(CBr)Nc2c([S+]([O-])C(F)(F)F)c(C#N)nn2-c2c(Cl)cc(C(F)(F)F)cc21 (stereo not shown)  criterion not met
 2  C=CC1(C(F)(F)F)Nc2cc(C#N)nn2-c2c(Cl)cc(C(F)(F)F)cc21 (stereo not shown)  criterion not met
 3  CC[S+]([O-])c1c(C(F)(F)F)nn2c1NC(C(F)(F)F)(C(F)(F)F)c1ccc(N)cc1-2 (stereo not shown)  criterion not met
 4        CCSc1c(C#N)nn2c1NC(C)(C)c1ccccc1-2  criterion not met
 5  CNC(=O)C1(CC(=O)OC)Nc2c([S+]([O-])C(F)(F)F)c(C#N)nn2-c2c(Cl)cc(C(F)(F)F)cc21 (stereo not shown)  criterion not met
 6  C=CC1Nc2c(-c3cc(C)oc3C)c(C#N)nn2-c2c(Cl)cc(C(F)(F)F)cc21 (stereo not shown)  criterion not met
 7  N#CCC1(CO)Nc2c([S+]([O-])C(F)(F)F)c(C#N)nn2-c2c(Cl)cc(C(F)(F)F)cc21 (stereo not shown)  criterion not met
 8  CNC(=O)C1(CC#N)Nc2c([S+]([O-])C(F)(F)F)c(C#N)nn2-c2c(Cl)cc(C(F)(F)F)cc21 (stereo not shown)  criterion not met
 9  C=CC1(CC#N)Nc2c([S+]([O-])CC)c(C#N)nn2-c2c(Cl)cc(C(F)(F)F)cc21 (stereo not shown)      criterion met
10  N#Cc1nn2c(c1[S+]([O-])C(F)(F)F)NC(CCl)(C(O)CO)c1cc(C(F)(F)F)cc(Cl)c1-2 (stereo not shown)      criterion met
11  C=CC1Nc2c(Br)c(C#N)nn2-c2c(Cl)cc(C(F)(F)F)cc21 (stereo not shown)  criterion not met
12  COC(=O)CC1(C(=O)OC)Nc2c([S+](C)[O-])c(C(C)=O)nn2-c2c(Cl)cc(C(F)(F)F)cc21 (stereo not shown)  criterion not met
13  Nc1cc2n(n1)-c1cnccc1C(F)(CC(F)(F)F)N2 (stereo not shown)  criterion not met

###

System: Plutella xylostella
Assay: whole plant or invertebrate
Type: in vivo
Conditions: 500 ppm; 2nd-instar larvae, leaf immersion feeding
As shown below, each of these compounds has a reported Plutella xylostella Mortality (%) value.
Outcome measure: Plutella xylostella Mortality (%)

> print(dat)
                                   compound        tested.system  measured.value
1  O=C(CC1Nc2c([S+]([O-])C(F)(F)F)c(C(F)(F)F)nn2-c2c(Cl)cc(C(F)(F)F)cc21)C(F)(F)F (stereo not shown)  Plutella xylostella             100
2  CNC(=O)C1Nc2c([S+]([O-])C(F)(F)F)c(C(F)(F)F)nn2-c2c(Cl)cc(C(F)(F)F)cc21 (stereo not shown)  Plutella xylostella              96
3  CC(=O)C1(C(=O)C(F)(F)F)Nc2c([S+]([O-])C(F)(F)F)c(C#N)nn2-c2cc(C(F)(F)F)cc(Cl)c21 (stereo not shown)  Plutella xylostella              95
4  N#Cc1nn2c(c1[S+]([O-])C(F)(F)F)NC(CC(=O)C(F)(F)F)c1c(Cl)cncc1-2 (stereo not shown)  Plutella xylostella             100
